Each recorded value in this set is attributed to paper PMC7463537.

System: human cervical cancer (HeLa)
Experiment: Cytotoxicity, MTT assay, HeLa cells
Conditions: read-out: Cytotoxicity (EC50), HeLa; MTT reagent, 24 h
Metric Name: EC50 (µM)
Form entry: value (µM) — number only.

Query :: Which value of EC50 has been reported for C=C(C)CCCC1(C)OC(=O)C23CCC4C(=CCC5C(C)(C)C(OC6OCC(OS(=O)(=O)O)C(O)C6OC6OC(C)C(OC7OC(CO)C(O)C(OC8OC(CO)C(O)C(OC)C8O)C7O)C(O)C6OC6OCC(O)C(O)C6O)CCC45C)C2(C)CC(=O)C13 (stereo not shown) [Cucumarioside A2-2, reference compound] in the records?
Result :: 42.4
